Across several publications, the following IC50 results were reported for Poly [ADP-ribose] polymerase 1 (Homo sapiens).
Please note: IC50 exactly at 9 nM is no. Only values below 9 nM get yes.

Dear reviewer, please state whether O=c1[nH]nc2c3c(cccc13)NC(c1ccc(CN3CCC3)cc1)C2c1ccc(F)cc1 (stereo not given) has IC50 strictly beneath 9 nM.
yes

Lab log: compare recorded IC50 with 9 nM; is it strictly lower for COc1ccc2nc3ccccc3c(Nc3ccc(-c4nc5c(C(N)=O)cccc5[nH]4)cc3)c2c1 ?
no

Given the entry CNC(C)(C)c1ccc(-n2cc3cccc(C(N)=O)c3n2)cc1 , would its reported IC50 be below 9 nM?
no

Lab log: compare recorded IC50 with 9 nM; is it strictly lower for O=C(c1cc(Cc2n[nH]c(=O)c3ccccc23)cc(F)c1F)N1CCN(C(=O)N2CCOCC2)CC1 ?
yes

Bench note: check whether O=C(c1cc(Cc2n[nH]c(=O)c3ccccc23)cc(F)c1F)N1CCN(c2nccc(Br)n2)CC1 shows IC50 below 9 nM
no

Below 9 nM on IC50? Entry Cc1cc(N(C)c2ccc3c(C)n(C)nc3c2)nc(Nc2ccc(-c3nc4c(C(N)=O)cccc4[nH]3)cc2)n1
no

Threshold test, IC50 < 9 nM: CCCCNCc1ccc(-c2[nH]c3cccc4c3c2C(=O)NNC4=O)cc1
no

Below 9 nM on IC50? Entry CC(C)c1ccc(C2NC(=O)c3ccccc3N2)cc1 (stereo not given)
no

# check: IC50 < 9 nM for COc1ccc(-c2cc3[nH]c(=O)c4ccccc4n3n2)cc1OC
no

Please determine if CC(C)NCc1ccc(-n2cc3cccc(C(N)=O)c3n2)cc1 is below 9 nM in terms of IC50.
yes

Is the reported IC50 for CCc1cc2ccc(CN3CCN(c4cnc(C(=O)NC)nc4)CC3)cc2[nH]c1=O strictly below 9 nM?
yes

Is it true that IC50 reported for O=c1[nH]c2c(c3ccccc13)Cc1cc(F)ccc1-2 is less than 9 nM?
no

Strictly below 9 nM: is that where IC50 of O=C(Nc1ccc(Oc2ccc3ccccc3c2)c(Cl)c1)c1cc(Cl)cc(Cl)c1O sits?
no

Lab note: IC50 threshold 9 nM. Does this compound come in strictly under it? O=C(c1cc(Cc2n[nH]c(=O)c3ccccc23)cc(F)c1F)N1CCN(c2ccccn2)CC1
yes

hey, is IC50 for O=C(CCc1nc2ccccc2c(=O)[nH]1)N[C@H]1CC[C@H](n2c(=O)oc3ccccc32)CC1 lower than 9 nM or not?
no

Given C[C@H]1Cc2cc(F)cc(C(N)=O)c2O1 , is recorded IC50 strictly lower than 9 nM?
no

Hi there! Is IC50 for O=C1NC(=O)c2c1c1ccccc1c1[nH]c3ccccc3c21 below 9 nM, do you know?
no

# TODO verify IC50 < 9 nM strictly for this compound: CCCCN1CCN(C(=O)c2cc(Cc3n[nH]c(=O)c4ccccc34)ccc2F)CC1
yes

Problem: For the compound CC(C)C[C@H](NC(=O)CNC(=O)c1cc(Cc2n[nH]c(=O)c3ccccc23)ccc1F)B(O)O , is IC50 under 9 nM?
yes

Is IC50 of NC(=O)c1cncc2[nH]c(C3CCNCC3)nc12 strictly below 9 nM?
no

Please determine if O=c1[nH]nc2c3c(cccc13)NC(c1ccncc1)C2c1ccncc1 (stereo not given) is below 9 nM in terms of IC50.
no

Identify whether the compound CC(C)(C)C(=O)Nc1cccc2c(=O)[nH]ccc12 records IC50 below 9 nM.
no

Please determine if O=c1[nH]nc2c3c(cccc13)NC(c1ccc(CN3CCCC3)cc1)C2c1ccccc1 (stereo not given) is below 9 nM in terms of IC50.
yes

Hello, is IC50 of the following compound strictly smaller than 9 nM? O=c1[nH]c(N2CCC3(CC2)CNc2ccccc23)nc2c1CCCC2
no

Strictly below 9 nM in IC50? O=C1CCN(c2ccccc2C(=O)NCCc2nc(-c3ccccn3)no2)C(=O)N1
no

Say whether its IC50 is strictly beneath 9 nM. Entry: CCCN1CCCC(Oc2ccc3[nH]c(=O)c4c(c3c2)CCSC4)C1 (stereo not given)
no

Input Cc1noc(C)c1-c1ccc2c(c1)C(c1ccccc1)N(Cc1nc3c(C(N)=O)cccc3[nH]1)C(=O)N2 (stereo not given) ; condition: IC50 strictly below 9 nM. Does it hold?
no

Take the compound CCC(=O)N1CCN(C(=O)c2cc(Cc3n[nH]c(=O)c4ccccc34)ccc2F)CC1 and say whether its IC50 is less than 9 nM.
yes

State whether 9 nM exceeds IC50 recorded for CCCCc1nc2ccccc2c(=O)[nH]1 .
no

Confirm or reject: IC50 of Cc1cc2c(=O)[nH]cc(Cc3ccc(F)c(C(=O)N4CCCNCC4)c3)n2c1 lies strictly below 9 nM
yes

I wonder whether Cc1nn(C)c2[nH]c3c(c(=O)c12)CCCC3 has IC50 below 9 nM. Can you tell?
no

Consider the compound NC(=O)c1cccc2[nH]c(NC(=O)c3cccc(C(=O)N4CCC(Nc5ncc(F)cn5)CC4)c3)nc12 . Is its IC50 strictly less than 9 nM?
no

Determine whether this compound shows IC50 lower than 9 nM (ties excluded): COc1cc2c(cc1OC)CN(C(=O)C1CCN(C(=O)c3cccc(Cc4n[nH]c(=O)c5ccccc45)c3)CC1)CC2
no

API: query returns whether the compound falls strictly under 9 nM in IC50. Query: O=C(CCCc1nc2ccccc2c(=O)[nH]1)N1CCN(c2noc3ccccc23)CC1
no

Please determine if Cc1c2ccc(N(C)c3ccnc(Nc4ccc(-c5nc6ccccc6[nH]5)c(Cl)c4)n3)cc2nn1C is below 9 nM in terms of IC50.
no

is_below(IC50, 9 nM) for O=C(c1cc(Cc2n[nH]c(=O)c3ccccc23)ccc1F)N1CCn2c(nnc2-c2ccoc2)C1 ?
yes

Input NC(=O)c1cccc2cn(CC(=O)N3CCN(c4ccc(C(F)(F)F)cn4)CC3)nc12 ; condition: IC50 strictly below 9 nM. Does it hold?
no

Decide: IC50 of Cn1ncnc1C1c2n[nH]c(=O)c3cc(F)cc(c23)NC1c1ccccc1 (stereo not given) strictly below 9 nM?
yes

Please state whether IC50 is below 9 nM for O=C(c1cccc(Cc2n[nH]c(=O)c3ccccc23)c1)N1CCCN(CCO)CC1
no
